- PROTOCOL_SUMMARY: protease stability score; higher = more stable; yeast display proteolysis, trypsin and chymotrypsin;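 further: relative to predicted unfolded state with 0 unfolded-like and 1 meaning tenfold more protease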
MEASURED_PARAMETER: protease stability score
API doc: respond with a numeric literal and nothing else, no unit.

{"SEQUENCE_ENTRY": "DERHEHAKEYLEMWLHSIFTGDERTLMELVDPNAKHLVNGRERHGRDELSRILIHIRMHVRDSKLRDMRVVGDKAIIHTEVDEELHFNGRTVRMIVEVEIYLFKVNGKWVFTEIRII", "protease stability score": 1.29}

Now take the following sequence into account.
Challenge: So what does the record say about protease stability score for `DDEEEEAKEMSEHTLQWFFTGDEEKLYKYIDPDVRVRVLIDGRELVYHGREVFLEFLKRQIEELGIDHVHLRRRHVIDGVLEVHGTINVDGREIELIIFADKYNGRWRLKLIEINVR` ?
Response given: 1.69
